Every entry's value here was drawn from patent US9050345B2.

I'd appreciate it if you could supply inhibition at 0.3 µM values for the items below.
- assayed_target: human KV 1.5 (IKur) (Homo sapiens, UniProt P22460)
- Construct: expressed in transfected cells
- Sequence (P22460 whole entry): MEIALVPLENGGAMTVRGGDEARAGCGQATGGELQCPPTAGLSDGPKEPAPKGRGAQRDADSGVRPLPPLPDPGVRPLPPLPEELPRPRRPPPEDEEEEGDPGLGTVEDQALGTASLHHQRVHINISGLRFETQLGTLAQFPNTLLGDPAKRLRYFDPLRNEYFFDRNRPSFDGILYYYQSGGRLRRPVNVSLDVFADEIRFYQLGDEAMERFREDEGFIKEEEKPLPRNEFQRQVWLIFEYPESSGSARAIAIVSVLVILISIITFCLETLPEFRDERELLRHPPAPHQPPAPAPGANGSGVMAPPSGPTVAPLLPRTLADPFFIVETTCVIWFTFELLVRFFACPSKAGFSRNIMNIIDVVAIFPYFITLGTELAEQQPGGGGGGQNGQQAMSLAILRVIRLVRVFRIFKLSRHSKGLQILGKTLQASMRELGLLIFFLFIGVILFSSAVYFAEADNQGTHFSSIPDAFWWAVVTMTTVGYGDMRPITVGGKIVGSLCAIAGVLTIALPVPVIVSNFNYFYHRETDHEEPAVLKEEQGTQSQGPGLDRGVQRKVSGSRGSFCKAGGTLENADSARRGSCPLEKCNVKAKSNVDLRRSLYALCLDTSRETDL
- assay_summary: block of IKur current in patch clamped L-929 cells expressing human Kv1.5
- Format: cell-based
- experimental_parameters: L929, 0.3 μM; patch clamped mammalian L-929 cells stably expressing human Kv1.5; read-out: KV1_5% Inh L929 @0.3 μM
Reply with the number, then its unit.

Prompt line: May I ask what inhibition at 0.3 µM has been recorded for OCC(O)c1cncc(-c2nc(NCc3ccccc3)c3c(-c4ccccc4)ccn3n2)c1 (stereo not shown) ?
Response line: 95%

Prompt line: Give the measured inhibition at 0.3 µM of CC(=O)NS(=O)(=O)c1cncc(-c2nc(NCc3ccccc3)c3c(-c4ccccc4)ccn3n2)c1 .
Response line: 61.7%

Prompt line: Recorded inhibition at 0.3 µM of O=C(NC[C@H](O)c1ccccc1)c1nc(NCc2ccccc2)c2c(-c3ccccc3)ccn2n1 , please.
Response line: 67.5%

Prompt line: Look up inhibition at 0.3 µM: NS(=O)(=O)c1cncc(-c2nc(N3Cc4cccnc4C3)c3c(-c4ccccc4)ccn3n2)c1
Response line: 99%

Prompt line: Field request: inhibition at 0.3 µM | item: COC(=O)NC1(c2nc(NCc3ccccn3)c3c(-c4ccccc4)ccn3n2)CC1
Response line: 92.8%

Prompt line: So what's the measured inhibition at 0.3 µM for this one? O=S(=O)(Nc1cncc(-c2nc(NCc3ccccn3)c3c(-c4ccccc4)ccn3n2)c1)C1CC1
Response line: 93.8%

Prompt line: Quick one: inhibition at 0.3 µM for CS(=O)(=O)Nc1cncc(-c2nc(NCc3ccccn3)c3c(-c4ccccc4)ccn3n2)c1 ?
Response line: 94.1%

Prompt line: Need inhibition at 0.3 µM of COC(=O)c1ccccc1CNc1nc(-c2cncc(S(N)(=O)=O)c2)nn2ccc(-c3ccccc3)c12 , thanks.
Response line: 89.8%

Prompt line: Could you share which inhibition at 0.3 µM value was measured for N#Cc1ccc(-c2nc(NCc3ccccn3)c3c(-c4ccccc4)ccn3n2)cc1 ?
Response line: 97.8%

Prompt line: Which inhibition at 0.3 µM value belongs to CC(C)S(=O)(=O)Nc1cncc(-c2nc(NCc3ccccn3)c3c(-c4ccccc4)ccn3n2)c1 ?
Response line: 97.6%

Prompt line: Field request: inhibition at 0.3 µM | item: NS(=O)(=O)c1cncc(-c2nc(NCc3nc4ccccc4s3)c3c(-c4ccccc4)ccn3n2)c1
Response line: 84.3%

Prompt line: Return reported inhibition at 0.3 µM; argument: CC(Nc1nc(-c2cncc(S(N)(=O)=O)c2)nn2ccc(-c3ccccc3)c12)c1ccc(F)cc1 (stereo not shown)
Response line: 93.8%

Prompt line: Can you look up the measured inhibition at 0.3 µM of C1=C(c2nc(NCc3ccccc3)c3c(-c4ccccc4)ccn3n2)CCOC1 for me?
Response line: 96.9%

Prompt line: Fill blank: measured inhibition at 0.3 µM of the compound NC(=O)CS(=O)(=O)Nc1cncc(-c2nc(NCc3ccccn3)c3c(-c4ccccc4)ccn3n2)c1 is ____.
Response line: 20.6%

Prompt line: # query: inhibition at 0.3 µM of entry Cc1cc(CNc2nc(-c3cncc(S(N)(=O)=O)c3)nn3ccc(-c4ccccc4)c23)no1
Response line: 96%

Prompt line: Need inhibition at 0.3 µM, item NS(=O)(=O)c1cccc(-c2nc(NCc3ccccc3)c3c(-c4ccccc4)ccn3n2)c1
Response line: 95.8%
